Some compounds, each annotated with its measured LD50.
# METHOD NOTES: Determination of acute toxicity (LD50, oral route)
# EXPERIMENTAL CONDITIONS: mouse, in vivo, mice

| COMPOUND | ATTRIBUTE MEASURED | RESULT VALUE |
| --- | --- | --- |
| COc1ccc(C(=O)/C=C/C(=O)O)c(OC)c1OC [Example 2] | LD50 | ~300 mg/kg |

Please look at the following compound next.
Look up LD50 for this compound: COc1ccc(C(=O)CC(O)C(=O)O)c(OC)c1OC (centres unmarked) [Example 1]
> 1000 mg/kg
